Test Readout: melting point

These solved cases illustrate the format of a correct answer.
* CCc1nc2ccc(Cl)cn2c1C(=O)NCc1cccc(N(C)Cc2ccc(OC(F)(F)F)cc2)c1 | > 142.3 °C (dec.)
* CCc1nc2ccc(Cl)cn2c1-c1nc(Cc2ccc(OC(F)(F)F)cc2)no1 | 146.4 to 146.9 °C
* CCc1nc2cc(C)ccn2c1C(=O)NCc1ccc(N2CCN(c3ccc(F)cc3)CC2)cc1 | 203.7 °C
* CCNC(=O)c1c(CC)nc2ccc(Cl)cn12 | 176.7 °C
* CCc1nc2ccc(Cl)cn2c1C(=O)NCc1ccc(C#N)cc1 | 223 to 224 °C

Report melting point for CCc1nc2ccc(Br)cn2c1C(=O)NCc1ccc(N2CCN(c3ccc(F)cc3)CC2)cc1 please.
218.1 °C

What do you have for CCc1nc2cc(Cl)ccn2c1C(=O)NCc1ccc(N2CCC(c3ccc(F)cc3)CC2)cc1 ?
182.7 °C

What do you have for CCc1nc2cc(-c3ccncc3)ccn2c1C(=O)NCc1ccc(N2CCOCC2)cc1 ?
210.1 °C

What do you have for CCc1nc2c(F)cccn2c1C(=O)NCc1ccc(Oc2ccc(OC(F)(F)F)cc2)cc1 ?
105.6 °C

What do you have for CCc1nc2ccc(Cl)cn2c1C(=O)NCc1ccc(N2CCOCC2)c(Cl)c1 ?
175.5 °C

What do you have for CCc1nc2ccc(Cl)cn2c1C(=O)NCc1ccc(N2CC(C)CC(C)C2)cc1 (stereo not drawn) ?
157.2 to 158 °C

What do you have for CCc1nc2cc(Br)ccn2c1C(=O)NCc1ccc(N2CCN(c3ccc(F)cc3)CC2)cc1 ?
214.6 °C

What do you have for CCc1nc2ccc(Cl)cn2c1C(=O)NCc1nc2ccc(Cl)cc2o1 ?
201.1 to 201.8 °C

What do you have for CCc1nc2cc(Cl)ccn2c1C(=O)NCc1ccc(N2C=CC(=O)CC2)cc1 ?
201.3 to 202.8 °C

What do you have for CCc1nc2ccc(Cl)cn2c1C(=O)OCc1ccc(Oc2ccccc2)cc1 ?
123.3 to 123.8 °C

====

target: Human 5-lipoxygenase (Homo sapiens, UniProt P09917); construct: purchased Cayman 60402; host or cells: insect cells; experiment: Activity of compounds against 5-LO enzyme (LTB4 measurement and/or fluorescence method); type: biochemical; settings: 5-LO, single concentration of 10 uM in duplicate
Test Readout: inhibition at 10 µM

These solved cases illustrate the format of a correct answer.
• CCc1nc2ccc(Cl)cn2c1C(=O)N1CCC(OCc2cccc(F)c2)CC1 = < 40%
• CCc1nc2ccc(C)cn2c1C(=O)NCc1ccc2ccn(C)c2c1 = 40 to 69%
• CCc1nc2ccc(Cl)cn2c1C(=O)NCc1ccc(OCC(C)C)cc1 = < 40%
• CCc1nc2ccc(Cl)cn2c1C(=O)NCc1ccc(N2CCC(F)(F)CC2)cc1 = < 40%
• CCc1nc2ccc(Cl)cn2c1C(=O)NCc1ccc(N2CCC3CCCCC3C2)cc1 (stereo not drawn) = < 40%

Note: attention shifts to another entry.
Report inhibition at 10 µM for CCc1nc2ccc(Cl)cn2c1C(=O)NCc1cccc(N2CCC(c3ccc(OC(F)(F)F)cc3)CC2)c1 please.
< 40%

====

Molecular target: Human 5-lipoxygenase (Homo sapiens)
Construct: purchased Cayman 60402; host or cells: insect cells
Sequence (P09917 1-674): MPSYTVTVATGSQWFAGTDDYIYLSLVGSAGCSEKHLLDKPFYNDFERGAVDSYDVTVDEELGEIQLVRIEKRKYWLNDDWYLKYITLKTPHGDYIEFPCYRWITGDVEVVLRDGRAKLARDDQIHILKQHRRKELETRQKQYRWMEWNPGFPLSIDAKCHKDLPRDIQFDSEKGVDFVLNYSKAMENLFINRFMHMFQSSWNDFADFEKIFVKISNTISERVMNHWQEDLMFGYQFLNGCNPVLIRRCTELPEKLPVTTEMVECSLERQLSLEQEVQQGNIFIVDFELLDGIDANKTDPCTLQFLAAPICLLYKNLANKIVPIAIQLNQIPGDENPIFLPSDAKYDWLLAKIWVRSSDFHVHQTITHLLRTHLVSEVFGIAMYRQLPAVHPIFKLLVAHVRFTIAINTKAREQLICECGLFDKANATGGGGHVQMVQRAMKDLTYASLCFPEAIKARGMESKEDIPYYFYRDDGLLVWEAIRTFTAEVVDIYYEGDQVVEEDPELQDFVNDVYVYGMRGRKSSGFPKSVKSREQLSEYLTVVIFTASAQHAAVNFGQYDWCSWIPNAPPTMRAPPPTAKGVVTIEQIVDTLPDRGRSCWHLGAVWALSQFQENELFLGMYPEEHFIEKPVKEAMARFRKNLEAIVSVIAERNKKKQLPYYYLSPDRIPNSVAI
Experiment: Activity of compounds against 5-LO enzyme (LTB4 measurement and/or fluorescence method)
Assay type: biochemical
Settings: 5-LO, single concentration of 10 uM in duplicate
Test Readout: inhibition at 10 µM

These solved cases illustrate the format of a correct answer.
• CCc1nc2cc(-c3cccnc3)ccn2c1C(=O)NCc1ccc(N2CCOCC2)cc1 [compound 305] = < 40%
• CCc1nc2cc(Cl)ccn2c1C(=O)NCc1ccc(N2C=CC(=O)CC2)cc1 [compound 201] = < 40%
• CCc1nc2cc(Cl)ccn2c1C(=O)NCc1ccc(Oc2ccc(F)cc2)cc1 [compound 129] = 40 to 69%

Report inhibition at 10 µM for CCc1nc2cc(Cl)ccn2c1C(=O)NCc1ccc(Oc2ccc(OC(F)(F)F)cc2)cc1 [compound 128] please.
> 69%

What do you have for Cc1nc2c(C#N)cccn2c1C(=O)NCc1ccccc1 [compound 47] ?
< 40%

What do you have for CCCc1nc2ccccn2c1C(=O)NCc1ccc(-c2ccccc2)cc1 [compound 46] ?
40 to 69%

What do you have for CCc1nc2ccc(Cl)cn2c1C(=O)N(C)Cc1ccc(Oc2ccc(F)cc2)cc1 [compound 164] ?
> 69%

What do you have for CCc1nc2cc(Cl)ccn2c1C(=O)NCc1ccc(N2CCC(COC(C)C)CC2)cc1 [compound 277] ?
< 40%

What do you have for CCc1nc2ccc(Cl)cn2c1C(=O)NCc1ccc(N2CCC(C)(O)CC2)cc1 [compound 321] ?
< 40%
